- Tested on: RAW264.7
- testSummary: Effect on inflammatory mediators in mouse RAW264.7 cells assessed as nitrite accumulation at 20% IC50 after 24 hrs by Griess assay
- Type: functional
readoutType: Activity (nmol)
Write the number in nmol without appending the unit.

Known results for molecules:
sampleSmiles | Activity / nmol
CC(C)c1ccc(-c2cc(-c3ccc4c(c3)CCCC4)nc(OCC(=O)NN)c2C#N)cc1 | 440.24
CCOC(=O)COc1nc(-c2ccc3c(c2)CCCC3)cc(-c2ccc(OC)c(OC)c2)c1C#N | 2.65
CC(C)c1ccc(-c2cc(-c3ccc4c(c3)CCCC4)nc(OCC(=O)NCc3ccccc3)c2C#N)cc1 | 10.19
CCOC(=O)COc1nc(-c2ccc3c(c2)CCCC3)cc(-c2ccc(C(C)C)cc2)c1C#N | 3.19
CC(C)c1ccc(-c2cc(-c3ccc4c(c3)CCCC4)nc(Cl)c2C#N)cc1 | 439.13

(Q) Request the reported Activity associated with COc1ccc(-c2cc(-c3ccc4c(c3)CCCC4)nc(NCc3ccccc3)c2C#N)cc1OC
(A) 720.91

(Q) Request the reported Activity associated with COc1ccc(-c2cc(-c3ccc4c(c3)CCCC4)[nH]c(=S)c2C#N)cc1OC
(A) 8.58
